Assignment: determine reported Emax for the given molecules.
tested-target: BRAF^V600E protein (Homo sapiens, UniProt P15056, V600E)
Sequence (P15056 whole entry V600E): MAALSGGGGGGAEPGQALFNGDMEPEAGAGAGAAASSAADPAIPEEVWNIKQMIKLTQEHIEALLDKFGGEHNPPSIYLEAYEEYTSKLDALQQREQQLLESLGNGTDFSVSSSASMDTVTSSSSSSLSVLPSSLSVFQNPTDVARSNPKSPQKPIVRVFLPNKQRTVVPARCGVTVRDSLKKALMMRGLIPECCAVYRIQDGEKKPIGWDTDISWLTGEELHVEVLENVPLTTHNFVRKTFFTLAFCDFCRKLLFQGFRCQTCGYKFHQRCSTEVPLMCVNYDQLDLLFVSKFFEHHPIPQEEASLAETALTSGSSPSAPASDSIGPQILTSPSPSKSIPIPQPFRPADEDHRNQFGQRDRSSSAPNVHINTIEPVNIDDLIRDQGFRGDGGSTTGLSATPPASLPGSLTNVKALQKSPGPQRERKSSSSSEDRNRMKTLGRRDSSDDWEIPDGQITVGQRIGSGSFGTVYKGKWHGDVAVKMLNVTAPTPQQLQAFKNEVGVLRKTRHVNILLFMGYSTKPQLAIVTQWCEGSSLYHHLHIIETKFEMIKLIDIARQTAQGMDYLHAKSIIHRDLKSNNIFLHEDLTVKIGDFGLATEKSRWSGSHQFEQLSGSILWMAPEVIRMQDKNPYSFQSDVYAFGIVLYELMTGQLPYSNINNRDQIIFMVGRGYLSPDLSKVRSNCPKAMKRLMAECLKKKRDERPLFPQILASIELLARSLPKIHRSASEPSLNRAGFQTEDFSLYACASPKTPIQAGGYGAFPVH
test-details: HiBiT cellular BRAF V600E degradation assay
Assay type: cell-based
condition: A375.10 cells, 24 h incubation; Emax = amount of residual protein remaining in the cell after compound treatment; read-out: HiBit 24 h Emax
Where a name gives a salt, the structure may show the parent alone.
Express your answer in %, writing the number without its unit.

Param readout= Emax; system= BRAF^V600E protein (Homo sapiens, UniProt P15056, V600E); entry= CCN(C)S(=O)(=O)Nc1ccc(F)c(C(=O)c2c[nH]c3ncc(-c4cnc(N5CCCN(C(=O)CN6CCC(c7ccc(NC8CCC(=O)NC8=O)cc7)CC6)CC5)nc4)cc23)c1F (stereo not drawn) ; returns value.
11.8

Lab note: need Emax for CCN(C)S(=O)(=O)Nc1ccc(F)c(C(=O)c2c[nH]c3ncc(-c4cnc(N5CCN(C(=O)CC6CCN(c7ccc(NC8CCC(=O)NC8=O)cc7F)C6)CC5)nc4)cc23)c1F (stereo not drawn) on BRAF^V600E protein (Homo sapiens, UniProt P15056, V600E), anyone have it?
15

Give the reported Emax for CCN(C)S(=O)(=O)Nc1ccc(F)c(C(=O)c2c[nH]c3ncc(-c4ccc(N5CCC(NCC(=O)N6CCC(c7ccc(OC8CCC(=O)NC8=O)cn7)CC6)CC5)cc4)cc23)c1F (stereo not drawn) [Example A97, hydrochloride] (system: BRAF^V600E protein (Homo sapiens, UniProt P15056, V600E)).
12

----------
tested-target: BRAF^V600E protein (Homo sapiens, UniProt P15056, V600E)
test-details: HiBiT cellular BRAF V600E degradation assay
Type: cell-based
condition: A375.10 cells (HiBiT tag knocked in at N-terminal of BRAF V600E), 24 h incubation; concentration at which 50% of total cellular BRAF V600E is degraded
property-name: DC50 (nM)
Note: unit nM is implicit; provide only the numeric part.

# get_value(readout='DC50', item= CCN(C)S(=O)(=O)Nc1ccc(F)c(C(=O)c2c[nH]c3ncc(-c4cnc(N5CCN(C(=O)CN6CCC(c7ccc(N(C)C8CCC(=O)NC8=O)cc7)CC6)CC5)nc4)cc23)c1F (centres unmarked) [Example A70] )
19

Fill in: DC50 of CCN(C)S(=O)(=O)Nc1cccc(C(=O)c2c[nH]c3ncc(-c4ccc(N5CCN(C(=O)CC6(O)CCN(c7ccc(NC8CCC(=O)NC8=O)cc7F)CC6)CC5)nc4)cc23)c1F (centres unmarked) is ___
6.46

Need DC50 of CCN(C)S(=O)(=O)Nc1cccc(C(=O)c2c[nH]c3ncc(-c4ccc(N5CCN(C(=O)CC6(O)CCN(c7ncc(NC8CCC(=O)NC8=O)cc7F)CC6)CC5)nc4)cc23)c1F (centres unmarked) , thanks.
5.13

Which DC50 is reported for this compound? CCN(C)S(=O)(=O)Nc1ccc(F)c(C(=O)c2c[nH]c3ncc(-c4ccc(N5CCN(C(=O)CN6CCC(c7ccc(NC8CCC(=O)NC8=O)cc7)CC6)CC5)cc4)cc23)c1F (centres unmarked) [Example 84]
3.14

Any idea what its DC50 is? The compound is CC(C)S(=O)(=O)Nc1ccc(F)c(C(=O)c2c[nH]c3ncc(-c4ccc(N5CCN(C(=O)CN6CCC(c7ccc(OC8CCC(=O)NC8=O)cc7)CC6)CC5)nc4)cc23)c1F (centres unmarked)
20.9

Param item = CCN(C)S(=O)(=O)Nc1cccc(C(=O)c2c[nH]c3ncc(-c4ccc(N5CCN(C(=O)CC6(O)CCN(c7ncc(NC8CCC(=O)NC8=O)cc7F)CC6)CC5)cc4)cc23)c1F (centres unmarked) ; retrieve measured DC50.
2.87

Please report the recorded DC50 for CCN(C)S(=O)(=O)Nc1ccc(F)c(C(=O)c2c[nH]c3ncc(-c4ccc(C5=CCN(C(=O)CC6CCN(c7ccc(NC8CCC(=O)NC8=O)cc7)CC6)CC5)cc4)cc23)c1F (centres unmarked) .
22.9

Given the compound CCN(C)S(=O)(=O)Nc1cccc(C(=O)c2c[nH]c3ncc(-c4cnc(N5CCN(C(=O)CC6(O)CCN(c7ncc(NC8CCC(=O)NC8=O)cc7F)CC6)CC5)nc4)cc23)c1F (centres unmarked) , what is its reported DC50?
3.37

Which DC50 value is on record for CCN(C)S(=O)(=O)Nc1ccc(F)c(C(=O)c2c[nH]c3ncc(-c4cnc(N5CC[C@@H](C(=O)N6CCC(c7ccc(NC8CCC(=O)NC8=O)cc7)CC6)C5)nc4)cc23)c1F (some centres unmarked) ?
5.11

# get_value(readout='DC50', item= CCN(C)S(=O)(=O)Nc1ccc(F)c(C(=O)c2c[nH]c3ncc(-c4ccc(N5CCC(NC(=O)CN6CCC(c7ccc(OC8CCC(=O)NC8=O)cn7)CC6)CC5)nc4)cc23)c1F (centres unmarked) )
151

Dear colleague, I am looking for the recorded DC50 of the following compound: CCN(C)S(=O)(=O)Nc1ccc(F)c(C(=O)c2c[nH]c3ncc(-c4cnc(N5CCN(C(=O)CC6CCN(c7ccc(NC8CCC(=O)NC8=O)cc7F)CC6)CC5)nc4)cc23)c1F (centres unmarked)
3.41

Find the recorded DC50 belonging to CCN(C)S(=O)(=O)Nc1ccc(F)c(C(=O)c2c[nH]c3ncc(-c4cnc(N5CCC(NC(=O)CN6CCC(c7ccc(OC8CCC(=O)NC8=O)cn7)CC6)CC5)nc4)cc23)c1F (centres unmarked) and report it.
275

Would you mind telling me what DC50 value was observed for CCN(C)S(=O)(=O)Nc1ccc(F)c(C(=O)c2c[nH]c3ncc(-c4ccc(CN5CCN(C(=O)CN6CCC(c7ccc(NC8CCC(=O)NC8=O)cc7)CC6)CC5)nc4)cc23)c1F (centres unmarked) ?
30

Requested field: DC50. Item: CCN(C)S(=O)(=O)Nc1ccc(Cl)c(C(=O)c2c[nH]c3ncc(-c4cnc(N5CCN(C(=O)CC6(O)CCN(c7ccc(NC8CCC(=O)NC8=O)cc7F)CC6)CC5)nc4)cc23)c1F (centres unmarked)
6.48

Give the measured DC50 of `CCN(C)S(=O)(=O)Nc1ccc(F)c(C(=O)c2c[nH]c3ncc(-c4cnc(N5CCN(C(=O)CC6(O)CCN(c7ccc8c(N9CCC(=O)NC9=O)nn(C)c8c7)CC6)CC5)nc4)cc23)c1F` .
4.52

So what's the measured DC50 for this one? CCN(C)S(=O)(=O)Nc1ccc(F)c(C(=O)c2c[nH]c3ncc(-c4cnc(N5CCC(CC(=O)N6CCC(c7ccc(NC8CCC(=O)NC8=O)cc7)CC6)CC5)nc4)cc23)c1F (centres unmarked)
15

Reported DC50, compound O=C1CCC(Oc2ccc(C3CCN(CC(=O)N4CCN(c5ccc(-c6cnc7[nH]cc(C(=O)c8c(F)ccc(NS(=O)(=O)C9CCCCC9)c8F)c7c6)cn5)CC4)CC3)cc2)C(=O)N1 (centres unmarked) : ____
39

Need DC50 of CCN(C)S(=O)(=O)Nc1ccc(F)c(C(=O)c2c[nH]c3ncc(-c4ccc(N5CCC(NC(=O)CN6CCC(c7ccc(NC8CCC(=O)NC8=O)cn7)CC6)CC5)nc4)cc23)c1F (centres unmarked) , thanks.
33

Which measured DC50 value corresponds to CCN(C)S(=O)(=O)Nc1ccc(F)c(C(=O)c2c[nH]c3ncc(-c4cnc(N5CCN(C(=O)CC6(O)CCN(c7ccc(C8CCC(=O)NC8=O)cc7F)CC6)CC5)c(F)c4)cc23)c1F (centres unmarked) ?
2.34

# DC50 lookup, item O=C1CCC(Nc2ccc(N3CCC(O)(CC(=O)N4CCN(c5ccc(-c6cnc7[nH]cc(C(=O)c8c(F)ccc(NS(=O)(=O)N9CC[C@@H](F)C9)c8F)c7c6)cc5)CC4)CC3)c(F)c2)C(=O)N1 (some centres unmarked)
3.89

----------
I'd be grateful if you could share measured Emax for these entries.
tested-target: BRAF^V600E protein (Homo sapiens, UniProt P15056, V600E)
test-details: HiBiT cellular BRAF V600E degradation assay
Format: cell-based
condition: A375.10 cells, 24 h incubation; Emax = amount of residual protein remaining in the cell after compound treatment; read-out: HiBit 24 h Emax
API: value field is a number in %; no unit string.

What measured Emax goes with CCN(C)S(=O)(=O)Nc1ccc(F)c(C(=O)c2c[nH]c3ncc(-c4ccn(C5CCN(C(=O)CC6(O)CCN(c7ccc(NC8CCC(=O)NC8=O)cc7F)CC6)CC5)c(=O)c4)cc23)c1F (centres unmarked) ?
13.5

// query Emax value for entry O=C1CCC(Nc2ccc(C3CCN(C(=O)NC4CCN(Cc5ccc(-c6cnc7[nH]cc(C(=O)c8c(F)ccc(NS(=O)(=O)N9CCCC9)c8F)c7c6)cc5)CC4)CC3)cc2)C(=O)N1 (centres unmarked)
22

Query (compound): CCN(C)S(=O)(=O)Nc1ccc(F)c(C(=O)c2c[nH]c3ncc(-c4cnc(N5CC6(CC(C(=O)N7CCC(c8ccc(NC9CCC(=O)NC9=O)cc8)CC7)C6)C5)nc4)cc23)c1F (centres unmarked) ; field requested: Emax
12

Field request: Emax | item: `CCN(C)S(=O)(=O)Nc1ccc(F)c(C(=O)c2c[nH]c3ncc(-c4cnc(N5CCN(C(=O)CN6CCC(c7ccc(CN8CCC(=O)NC8=O)cc7)CC6)CC5)nc4)cc23)c1F`
10.6

Fill in: Emax of CCN(C)S(=O)(=O)Nc1ccc(F)c(C(=O)c2c[nH]c3ncc(-c4ccc(N5CCC(NCC(=O)N6CCC(c7ccc(NC8CCC(=O)NC8=O)cc7)CC6)CC5)nc4)cc23)c1F (centres unmarked) is ___
13
